pIC50: −log10 of the molar value.
The next entries give measured pIC50 for CDK12 (Homo sapiens, UniProt Q9NYV4).
readout-kind: pIC50

# chem-smiles, readout-kind, numeric-result
measured = [
    ("NS(=O)(=O)c1cccc(Nc2ncc(C(F)(F)F)c(-n3cnc4ccccc43)n2)c1", "pIC50", 5.88),
    ("Cc1nc2ccccc2n1-c1nc(Nc2cccc(S(N)(=O)=O)c2)ncc1C(F)(F)F", "pIC50", 6.82),
    ("NS(=O)(=O)c1cccc(Nc2ncc(C(F)(F)F)c(-n3c(C4CC4)nc4ccccc43)n2)c1", "pIC50", 6.27),
    ("Cc1cnc(Nc2cccc(S(N)(=O)=O)c2)nc1-n1cnc2ccccc21", "pIC50", 6.85),
    ("NS(=O)(=O)c1cccc(Nc2nccc(-n3cnc4ccccc43)n2)c1", "pIC50", 6.53),
    ("NS(=O)(=O)c1cccc(Nc2ncc(C(F)(F)F)c(-n3c(C(F)(F)F)nc4ccccc43)n2)c1", "pIC50", 6.05),
    ("Cc1cnc(Nc2cccc(S(N)(=O)=O)c2)nc1-n1c(C)nc2ccccc21", "pIC50", 7.15),
    ("NS(=O)(=O)c1cccc(Nc2ncc(F)c(-n3cnc4ccccc43)n2)c1", "pIC50", 6.25),
    ("Cc1nc2ccccc2n1-c1ccnc(Nc2cccc(S(N)(=O)=O)c2)n1", "pIC50", 6.37),
    ("NS(=O)(=O)c1cccc(Nc2nccc(-n3c(C(F)(F)F)nc4ccccc43)n2)c1", "pIC50", 6.44),
    ("NS(=O)(=O)c1cccc(Nc2ncc(F)c(-n3c(C4CC4)nc4ccccc43)n2)c1", "pIC50", 6.98),
    ("NS(=O)(=O)c1cccc(Nc2nccc(-n3c(C4CC4)nc4ccccc43)n2)c1", "pIC50", 7.13),
    ("Cc1cnc(Nc2cccc(S(N)(=O)=O)c2)nc1-n1c(C2CC2)nc2ccccc21", "pIC50", 6.72),
    ("Cc1cnc(Nc2cccc(S(N)(=O)=O)c2)nc1-n1c(C(F)(F)F)nc2ccccc21", "pIC50", 5.92),
    ("NS(=O)(=O)c1cccc(Nc2ncc(F)c(-n3c(C(F)(F)F)nc4ccccc43)n2)c1", "pIC50", 6.98),
    ("Cc1cnc(Nc2cccc(S(N)(=O)=O)c2)nc1-n1c(C(C)C)nc2ccccc21", "pIC50", 5.73),
    ("CC(C)c1nc2ccccc2n1-c1nc(Nc2cccc(S(N)(=O)=O)c2)ncc1C(F)(F)F", "pIC50", 6.18),
]

###

pIC50: −log10 of the molar value.
The next entries give measured pIC50 for CDK12 (Homo sapiens, UniProt Q9NYV4).

# compound, pIC50
records = [
    ("CC(C)c1nc2ccccc2n1-c1ccnc(Nc2cccc(S(N)(=O)=O)c2)n1 [Compound 4 m]", 7.22),
    ("Cc1nc2ccccc2n1-c1nc(Nc2cccc(S(N)(=O)=O)c2)ncc1F [Compound 4f]", 5.94),
    ("CC(C)c1nc2ccccc2n1-c1nc(Nc2cccc(S(N)(=O)=O)c2)ncc1F [Compound 4n]", 6.75),
]

###

System: HeLa (cervical epithelioid carcinoma)
Test: MTT antiproliferation assay, HeLa
Assay type: cell-based, human
Conditions: Homo sapiens, HeLa, read-out: IC50 (µM) Hela, MTT assay, HeLa cells
Recorded IC50 by entry
readout-kind: IC50 (µM)

# chem-smiles, readout-kind, unit, qualifier, numeric-result
records = [
    ("Cc1cnc(Nc2cccc(S(N)(=O)=O)c2)nc1-n1c(C(F)(F)F)nc2ccccc21", "IC50", "µM", "=", 42.8),
    ("Cc1nc2ccccc2n1-c1ccnc(Nc2cccc(S(N)(=O)=O)c2)n1", "IC50", "µM", ">", 50),
    ("Cc1cnc(Nc2cccc(S(N)(=O)=O)c2)nc1-n1c(C2CC2)nc2ccccc21", "IC50", "µM", "=", 47.2),
]
